Data origin: patent US10336702B2

Target: Akt2 (Homo sapiens)
Construct: unspecified tag, removed (detagged) (cleaved yes); purchased SignalChem and Proteros (Akt2); Merck Millipore (PDK1) 14-452 (PDK1); none given for Akt2
Sequence (P31751 whole entry): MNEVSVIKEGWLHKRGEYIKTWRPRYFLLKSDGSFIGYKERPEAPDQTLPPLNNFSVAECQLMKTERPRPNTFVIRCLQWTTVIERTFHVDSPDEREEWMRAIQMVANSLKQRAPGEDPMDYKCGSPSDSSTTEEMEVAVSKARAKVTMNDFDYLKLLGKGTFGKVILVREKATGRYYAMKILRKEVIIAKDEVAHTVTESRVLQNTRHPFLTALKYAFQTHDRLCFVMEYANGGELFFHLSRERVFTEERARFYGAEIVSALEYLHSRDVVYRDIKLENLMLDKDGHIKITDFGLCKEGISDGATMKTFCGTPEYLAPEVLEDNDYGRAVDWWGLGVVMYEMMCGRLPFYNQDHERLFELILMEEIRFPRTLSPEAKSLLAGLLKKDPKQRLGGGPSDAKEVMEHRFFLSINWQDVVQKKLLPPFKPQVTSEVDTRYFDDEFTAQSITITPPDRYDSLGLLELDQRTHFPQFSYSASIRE
Assay: Akt activation assay (PDK1-mediated activation, LANCE Ultra crosstide TR-FRET), Akt2
Assay type: biochemical
Details: read-out: Biological Assay 1 IC50 (nM) Akt2
QUANTITY NAME: IC50 (nM)

Guide cases for IC50, answers given:
CC(C)C(=O)N(C)[C@H]1CC[C@H](CC(=O)Nc2cc(-c3ccccc3)c(-c3ccc([C@]4(N)C[C@](C)(O)C4)cc3)cn2)CC1 [Example 85] | 77
COC1CCC(CC(=O)Nc2cnc(-c3ccc(C4(N)COC4)cc3)c(-c3ccccc3)c2)CC1 (mixture of isomers) [Example 21] | 1100
CC(=O)N(C)[C@H]1CC[C@H](CC(=O)Nc2cnc(-c3ccc([C@H](C)N)cc3)c(-c3ccccc3)c2)CC1 [Example 7] | 9200
CCN(C(=O)OC)[C@H]1CC[C@H](CC(=O)Nc2cc(-c3ccccc3)c(-c3ccc([C@]4(N)C[C@](C)(O)C4)cc3)cn2)CC1 [Example 116] | 220
Cc1nncn1[C@H]1CC[C@H](CC(=O)Nc2cnc(-c3ccc(C4(N)CCC4)cc3)c(-c3ccccc3)c2)CC1 [Example A17] | 420

a = CCN(C(=O)OC)[C@H]1CC[C@H](CC(=O)Nc2cnc(-c3ccc([C@]4(N)C[C@](C)(O)C4)cc3)c(-c3ccccc3)c2)CC1 [Example 118]
b = CN([C@H]1CC[C@H](CC(=O)Nc2cnc(-c3ccc(C(C)(C)N)cc3)c(-c3ccccc3F)c2)CC1)S(C)(=O)=O [Example A26]
Please tell me which of the two, a or b , has the higher reported IC50 value. Answer by quoting the chosen item's label. b

a = COC(=O)N(C)[C@H]1CC[C@H](CC(=O)Nc2cc(-c3ccccc3)c(-c3ccc([C@]4(N)C[C@](C)(O)C4)cc3)cn2)CC1 [Example 67]
b = CC(=O)N(CC(F)(F)F)[C@H]1CC[C@H](CC(=O)Nc2cc(-c3ccccc3)c(-c3ccc([C@]4(N)C[C@](C)(O)C4)cc3)cn2)CC1 [Example 117]
c = CCC(=O)N(C)[C@H]1CC[C@H](CC(=O)Nc2cc(-c3ccccc3)c(-c3ccc(C4(N)CC4)cc3)nn2)CC1 [Example A91]
d = COC(=O)N(C)[C@H]1CC[C@H](CC(=O)Nc2cnc(-c3ccc(C(C)(C)N)cc3)c(-c3ccccc3)c2)CC1 [Example 34]
e = CN(C(=O)C1CCC1)[C@H]1CC[C@H](CC(=O)Nc2cc(-c3ccccc3)c(-c3ccc(C4(N)CC4)cc3)nn2)CC1 [Example A93]
Put the items in sequence by IC50, from largest down. Respond with the label ranking, as requested. d, e, c, b, a

a = CC(=O)N(C)[C@H]1CC[C@H](CC(=O)Nc2cnc(-c3ccc(C4(N)CCC4)cc3)c(-c3ccccc3F)c2)CC1 [Example 16]
b = CC(=O)N(C(C)C)[C@H]1CC[C@H](CC(=O)Nc2cnc(-c3ccc([C@]4(N)C[C@](C)(O)C4)cc3)c(-c3ccccc3)c2)CC1 [Example 120]
c = C[C@@H]1CC(CC(=O)Nc2cnc(-c3ccc(C4(N)COC4)cc3)c(-c3ccccc3)c2)C[C@H](C)O1 (stereo partly shown) [Example 22]
d = CC(C)(N)c1ccc(-c2ncc(NC(=O)C[C@H]3CC[C@H](N4CCCCC4=O)CC3)cc2-c2ccccc2)cc1 [Example 28]
Rank by IC50 (largest to smallest). State the ranking by listing the labels in the requested order. d, c, a, b
(d: 7000 nM, c: 2600 nM, a: 380 nM, b: 65 nM)
